- Target Of Assay: T1, CCL22_HUMAN (Homo sapiens, UniProt O00626)
- T1 sequence (O00626 25-93): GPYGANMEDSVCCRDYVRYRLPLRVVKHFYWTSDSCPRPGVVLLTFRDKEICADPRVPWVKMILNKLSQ
- Test: Biolayer interferometry (BLI) binding
- Method: Table 1. Tick CKBPs described in PCT/GB2017/050563 and [17]. Tick peptide sequences isolated in yeast surface display fluorescent-activated cell sorting (FACS) screens using a labelled chemokine. Identity with Evasin-1, 4 or 3 was calculated using BLAST. […] Binding to human chemokines was determined for 14 tick CKBPs using biolayer interferometry (BLI) with calculated Kd shown as Molar (Moles/Litre). […] Where binding was detected data are indicated as “YES”. […]
Experimental Readout: Kd (µM)
Form entry: value (µM) — number only.

Study these solved cases before continuing.
Molecule	Unit Of Measurement	Kd
P1243_AMBAM: tick CKBP, Amblyomma americanum; AAM-02 stated identical (protein, listed as Amblyomma americanum) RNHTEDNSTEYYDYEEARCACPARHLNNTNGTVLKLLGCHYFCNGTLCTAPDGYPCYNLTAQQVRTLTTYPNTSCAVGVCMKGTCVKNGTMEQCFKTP	µM	0.0223
P991_AMBCA: tick CKBP, Amblyomma cajennense (protein, Amblyomma cajennense) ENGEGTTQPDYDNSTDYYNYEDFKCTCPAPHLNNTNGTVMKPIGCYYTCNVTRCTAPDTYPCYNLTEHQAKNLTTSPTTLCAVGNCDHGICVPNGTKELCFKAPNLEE	µM	0.00397

Could you now look at the following molecule, please?
Which measured Kd value corresponds to P546_AMBCA: tick CKBP, Amblyomma cajennense (protein, Amblyomma cajennense) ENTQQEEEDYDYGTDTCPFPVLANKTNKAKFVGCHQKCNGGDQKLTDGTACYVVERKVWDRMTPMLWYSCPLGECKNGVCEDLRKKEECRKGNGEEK ?
0.027
